TEST SUMMARY: Cytotoxicity against human MT4 cells after 5 days by MTT assay
Type: cell-based
PROPERTY MEASURED: CC50 at 120 h

O=C(CSc1snnc1-c1ccc(Br)cc1Br)Nc1ccccc1Cl = > 241 µM
Cc1ccc2sc(NC(=O)CSc3snnc3-c3ccc(Br)cc3Br)nc2c1 = 23.6 µM
O=C(CSc1snnc1-c1ccc(Br)cc1Br)Nc1ccccc1 = 24.8 µM
O=C(CSc1snnc1-c1ccc(Br)cc1Br)Nc1nccs1 = 87.8 µM
Cc1cccc(C)c1NC(=O)CSc1snnc1-c1ccc(Br)cc1Br = ≥ 199 µM
Cc1ccccc1NC(=O)CSc1snnc1-c1ccc(Br)cc1Br = 202 µM
O=C(CSc1snnc1-c1ccc(Br)cc1Br)Nc1ccccc1[N+](=O)[O-] = > 236 µM
